Assay: Tmax in Sprague-Dawley rat at 10 mg/kg, ip by LC-MS/MS analysis
Assay type: ADME, organism-based
Conditions: in vivo
endpoint: Tmax
Remember to put the unit after the number in your answer.

**Q:** What does the data say about its Tmax? Entry: CS(=O)(=O)Nc1ccc(-c2ccnc(Nc3ccc(N4CCC(C(=O)Nc5ccc(/C=C/C(=O)NO)cc5)CC4)cc3)n2)cc1
**A:** 30 min

====

Target: Tyrosine-protein kinase JAK1 (Homo sapiens)
Sequence (P23458 whole entry): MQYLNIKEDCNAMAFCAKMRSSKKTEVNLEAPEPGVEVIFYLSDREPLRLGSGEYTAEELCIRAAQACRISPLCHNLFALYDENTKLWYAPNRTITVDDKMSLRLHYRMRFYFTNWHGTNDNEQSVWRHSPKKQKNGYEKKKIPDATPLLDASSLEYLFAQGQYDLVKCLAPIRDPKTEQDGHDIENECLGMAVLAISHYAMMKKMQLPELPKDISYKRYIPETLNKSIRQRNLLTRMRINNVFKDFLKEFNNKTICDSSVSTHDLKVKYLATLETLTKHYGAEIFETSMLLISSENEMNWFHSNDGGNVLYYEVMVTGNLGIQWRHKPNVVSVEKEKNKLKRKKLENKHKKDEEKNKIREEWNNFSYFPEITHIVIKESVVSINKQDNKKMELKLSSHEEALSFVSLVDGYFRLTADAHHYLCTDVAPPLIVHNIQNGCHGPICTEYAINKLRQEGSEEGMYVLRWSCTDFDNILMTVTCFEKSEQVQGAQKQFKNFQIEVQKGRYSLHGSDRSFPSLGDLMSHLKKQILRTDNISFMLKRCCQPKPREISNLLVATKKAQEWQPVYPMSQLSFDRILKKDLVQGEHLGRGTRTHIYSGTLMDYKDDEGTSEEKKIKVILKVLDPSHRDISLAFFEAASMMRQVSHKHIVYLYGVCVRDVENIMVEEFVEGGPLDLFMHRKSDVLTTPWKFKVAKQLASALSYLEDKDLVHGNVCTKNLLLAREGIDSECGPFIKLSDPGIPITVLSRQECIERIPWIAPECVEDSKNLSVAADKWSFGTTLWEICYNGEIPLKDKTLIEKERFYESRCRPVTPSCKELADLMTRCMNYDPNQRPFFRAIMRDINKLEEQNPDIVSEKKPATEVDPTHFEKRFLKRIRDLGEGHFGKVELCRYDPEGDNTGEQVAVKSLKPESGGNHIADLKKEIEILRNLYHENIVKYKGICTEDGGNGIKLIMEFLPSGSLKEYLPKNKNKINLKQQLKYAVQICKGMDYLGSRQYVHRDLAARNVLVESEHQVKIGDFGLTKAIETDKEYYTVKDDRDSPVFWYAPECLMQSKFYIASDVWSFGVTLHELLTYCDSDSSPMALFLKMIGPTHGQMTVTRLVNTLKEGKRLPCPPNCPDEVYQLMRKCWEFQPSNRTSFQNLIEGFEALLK
IC50 reference
Express the result in µM but write the number alone.

Completed entries (count: 2):
O=C(NO)c1ccc(-c2ccnc(Nc3ccc(N4CCOCC4)cc3)n2)cc1 : 0.069
CS(=O)(=O)Nc1ccc(-c2ccnc(Nc3ccc(N4CCC(C(=O)NCCCCCCCC(=O)NO)CC4)cc3)n2)cc1 : 0.076

Okay, next one:
**Q:** What does the data say about its IC50? Entry: CS(=O)(=O)Nc1ccc(-c2ccnc(Nc3ccc(N4CCC(C(=O)Nc5ccc(/C=C/C(=O)NO)cc5)CC4)cc3)n2)cc1
**A:** 0.359

====

Assay: Half life in Sprague-Dawley rat at 10 mg/kg, ip by LC-MS/MS analysis
Format: ADME, organism-based
Details: in vivo
endpoint: half-life (h)
Express the result in h but write the number alone.

**Q:** What does the data say about its half-life? Entry: CS(=O)(=O)Nc1ccc(-c2ccnc(Nc3ccc(N4CCC(C(=O)Nc5ccc(/C=C/C(=O)NO)cc5)CC4)cc3)n2)cc1
**A:** 5.14

====

Test system: Candida albicans
Experiment: microbe, parasite or virus in culture
Type: functional
Conditions: Candida albicans, 0304103, 48 h
Description: Antifungal activity against FLC resistant Candida albicans 0304103 assessed as fluconazol MIC50 after 48 hrs by checkerboard microdilution method
endpoint: MIC50 (µg/mL)
Express the result in µg/mL but write the number alone.

Completed entries (count: 4):
O=C(NO)c1ccc(-c2ccnc(Nc3ccc(N4CCOCC4)cc3)n2)cc1 : 0.5
CS(=O)(=O)Nc1ccc(-c2ccnc(Nc3ccc(N4CCC(C(=O)NCCCCCCC(=O)NO)CC4)cc3)n2)cc1 : 0.5
CS(=O)(=O)Nc1ccc(-c2ccnc(Nc3ccc(N4CCC(C(=O)NCCCCCCCC(=O)NO)CC4)cc3)n2)cc1 : 0.25
CS(=O)(=O)Nc1ccc(-c2ccnc(Nc3ccc(N4CCC(C(=O)NCCCC(=O)NO)CC4)cc3)n2)cc1 : 4

Okay, next one:
**Q:** What does the data say about its MIC50? Entry: CS(=O)(=O)Nc1ccc(-c2ccnc(Nc3ccc(N4CCC(C(=O)Nc5ccc(/C=C/C(=O)NO)cc5)CC4)cc3)n2)cc1
**A:** 0.5

====

half-life at 1 µM reference
Test: Half life in ICR mouse liver microsomes at 1 uM measured up to 45 mins in presence of NADPH by LC-MS/MS analysis
Assay type: ADME, microsome
Express the result in min but write the number alone.

**Q:** What does the data say about its half-life at 1 µM? Entry: O=C(NO)c1ccc(-c2ccnc(Nc3ccc(N4CCOCC4)cc3)n2)cc1
**A:** 16.5

**Q:** What does the data say about its half-life at 1 µM? Entry: CS(=O)(=O)Nc1ccc(-c2ccnc(Nc3ccc(N4CCC(C(=O)Nc5ccc(/C=C/C(=O)NO)cc5)CC4)cc3)n2)cc1
**A:** 19.4

**Q:** What does the data say about its half-life at 1 µM? Entry: CS(=O)(=O)Nc1ccc(-c2ccnc(Nc3ccc(N4CCC(C(=O)NCCCCCCCC(=O)NO)CC4)cc3)n2)cc1
**A:** 15.7

====

Target: Histone deacetylase 1 (Homo sapiens, UniProt Q13547)
Sequence (Q13547 whole entry): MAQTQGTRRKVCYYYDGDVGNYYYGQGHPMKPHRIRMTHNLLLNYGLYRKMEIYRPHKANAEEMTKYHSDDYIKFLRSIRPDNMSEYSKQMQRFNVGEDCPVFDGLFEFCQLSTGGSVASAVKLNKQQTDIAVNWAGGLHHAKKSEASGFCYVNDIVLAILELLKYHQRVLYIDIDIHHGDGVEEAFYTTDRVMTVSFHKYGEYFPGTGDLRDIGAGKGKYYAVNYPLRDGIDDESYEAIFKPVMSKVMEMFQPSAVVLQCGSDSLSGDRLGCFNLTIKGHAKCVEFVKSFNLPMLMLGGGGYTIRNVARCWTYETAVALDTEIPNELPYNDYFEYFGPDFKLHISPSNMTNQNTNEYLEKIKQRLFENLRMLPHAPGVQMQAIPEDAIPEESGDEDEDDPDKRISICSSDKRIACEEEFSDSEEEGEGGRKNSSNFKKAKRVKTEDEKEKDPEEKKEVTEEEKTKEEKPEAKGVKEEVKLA
Assay: Inhibition of full length human recombinant HDAC1 expressed in baculovirus expression system using (Ac-Leu-Gly-Lys(Ac)-AMC as substrate preincubated for 5 mins followed by substrate addition and measured after 30 mins by fluorescence assay
endpoint: pIC50
Schema: pIC50 number; meaning minus log10 of the concentration expressed in molar units.

CS(=O)(=O)Nc1ccc(-c2ccnc(Nc3ccc(N4CCC(C(=O)NCCCCCCCC(=O)NO)CC4)cc3)n2)cc1 : 7.74
N#CCNC(=O)c1ccc(-c2ccnc(Nc3ccc(N4CCC(C(=O)Nc5ccccc5N)CC4)cc3)n2)cc1 : 5.77
N#CCNC(=O)c1ccc(-c2ccnc(Nc3ccc(N4CCC(C(=O)Nc5ccc(/C=C/C(=O)NO)cc5)CC4)cc3)n2)cc1 : 5.29
CS(=O)(=O)Nc1ccc(-c2ccnc(Nc3ccc(N4CCC(C(=O)Nc5ccccc5N)CC4)cc3)n2)cc1 : 5.68
CS(=O)(=O)Nc1ccc(-c2ccnc(Nc3ccc(N4CCC(C(=O)NCCCCCC(=O)NO)CC4)cc3)n2)cc1 : 6.46

**Q:** What does the data say about its pIC50? Entry: N#CCNC(=O)c1ccc(-c2ccnc(Nc3ccc(N4CCC(C(=O)NO)CC4)cc3)n2)cc1
**A:** 5.57

**Q:** What does the data say about its pIC50? Entry: CS(=O)(=O)Nc1ccc(-c2ccnc(Nc3ccc(N4CCC(C(=O)NCCCCCCC(=O)NO)CC4)cc3)n2)cc1
**A:** 6.60

**Q:** What does the data say about its pIC50? Entry: N#CCNC(=O)c1ccc(-c2ccnc(Nc3ccc(N4CCC(C(=O)Nc5ccc(C(=O)NO)cc5)CC4)cc3)n2)cc1
**A:** 4.62

====

MIC50 reference
Test system: Candida albicans
Assay: microbe, parasite or virus in culture
Assay type: functional
Conditions: Candida albicans, 0710922, 48 h
Description: Antifungal activity against FLC resistant Candida albicans 0710922 after 48 hrs in presence of fluconazol by checkerboard microdilution method

Completed entries (count: 5):
N#CCNC(=O)c1ccc(-c2ccnc(Nc3ccc(N4CCOCC4)cc3)n2)cc1 [MOMELOTINIB] : 64 µg/mL
N#CCNC(=O)c1ccc(-c2ccnc(Nc3ccc(N4CCC(C(=O)Nc5ccc(/C=C/C(=O)NO)cc5)CC4)cc3)n2)cc1 : 16 µg/mL
Nc1ccccc1NC(=O)c1ccc(-c2ccnc(Nc3ccc(N4CCOCC4)cc3)n2)cc1 : > 64 µg/mL
CS(=O)(=O)Nc1ccc(-c2ccnc(Nc3ccc(N4CCC(C(=O)NCc5ccc(C(=O)NO)cc5)CC4)cc3)n2)cc1 : 64 µg/mL
CS(=O)(=O)Nc1ccc(-c2ccnc(Nc3ccc(N4CCC(C(=O)NO)CC4)cc3)n2)cc1 : 32 µg/mL

**Q:** What does the data say about its MIC50? Entry: N#CCNC(=O)c1ccc(-c2ccnc(Nc3ccc(N4CCC(C(=O)Nc5ccc(C(=O)NO)cc5)CC4)cc3)n2)cc1
**A:** > 64 µg/mL

**Q:** What does the data say about its MIC50? Entry: CS(=O)(=O)Nc1ccc(-c2ccnc(Nc3ccc(N4CCC(C(=O)NCCCCCC(=O)NO)CC4)cc3)n2)cc1
**A:** 64 µg/mL

**Q:** What does the data say about its MIC50? Entry: CS(=O)(=O)Nc1ccc(-c2ccnc(Nc3ccc(N4CCC(C(=O)Nc5ccc(C(=O)NO)cc5)CC4)cc3)n2)cc1
**A:** > 64 µg/mL

**Q:** What does the data say about its MIC50? Entry: CS(=O)(=O)Nc1ccc(-c2ccnc(Nc3ccc(N4CCC(C(=O)NCCCCCCC(=O)NO)CC4)cc3)n2)cc1
**A:** 32 µg/mL

**Q:** What does the data say about its MIC50? Entry: CS(=O)(=O)Nc1ccc(-c2ccnc(Nc3ccc(N4CCC(C(=O)NCCCC(=O)NO)CC4)cc3)n2)cc1
**A:** 32 µg/mL

**Q:** What does the data say about its MIC50? Entry: N#CCNC(=O)c1ccc(-c2ccnc(Nc3ccc(N4CCC(C(=O)NO)CC4)cc3)n2)cc1
**A:** 64 µg/mL

**Q:** What does the data say about its MIC50? Entry: CS(=O)(=O)Nc1ccc(-c2ccnc(Nc3ccc(N4CCC(C(=O)Nc5ccccc5N)CC4)cc3)n2)cc1
**A:** > 64 µg/mL

**Q:** What does the data say about its MIC50? Entry: CS(=O)(=O)Nc1ccc(-c2ccnc(Nc3ccc(N4CCC(C(=O)NCCCCCCCC(=O)NO)CC4)cc3)n2)cc1
**A:** 16 µg/mL

====

Biological target: Histone deacetylase 8 (Homo sapiens, UniProt Q9BY41)
Sequence (Q9BY41 whole entry): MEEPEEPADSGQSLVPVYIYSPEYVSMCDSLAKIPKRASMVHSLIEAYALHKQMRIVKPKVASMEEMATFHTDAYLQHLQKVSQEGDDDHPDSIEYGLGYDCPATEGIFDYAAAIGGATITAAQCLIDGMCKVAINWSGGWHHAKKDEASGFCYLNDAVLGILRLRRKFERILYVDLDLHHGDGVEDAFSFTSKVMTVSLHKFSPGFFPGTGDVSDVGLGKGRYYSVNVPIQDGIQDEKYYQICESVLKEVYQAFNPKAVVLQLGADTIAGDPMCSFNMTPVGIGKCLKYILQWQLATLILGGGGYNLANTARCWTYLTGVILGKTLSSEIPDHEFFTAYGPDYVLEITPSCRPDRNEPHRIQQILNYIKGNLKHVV
Experiment: Inhibition of full length recombinant C-terminal His tagged human HDAC8 expressed in Baculovirus infected Sf9 cells using Ac-Leu-Gly-Lys(Tfa)-AMC as substrate preincubated for 5 mins followed by substrate addition and measured after 30 mins by fluorescence assay
IC50 reference
Express the result in nM but write the number alone.

Completed entries (count: 2):
O=C(NO)c1ccc(-c2ccnc(Nc3ccc(N4CCOCC4)cc3)n2)cc1 : 609
CS(=O)(=O)Nc1ccc(-c2ccnc(Nc3ccc(N4CCC(C(=O)Nc5ccc(/C=C/C(=O)NO)cc5)CC4)cc3)n2)cc1 : 6070

Okay, next one:
**Q:** Return IC50 measured with Histone deacetylase 8 (Homo sapiens, UniProt Q9BY41) given this compound: CS(=O)(=O)Nc1ccc(-c2ccnc(Nc3ccc(N4CCC(C(=O)NCCCCCCCC(=O)NO)CC4)cc3)n2)cc1
**A:** 572

====

Tested on: Candida albicans
Assay: Synergistic antifungal activity against FLC resistant Candida albicans 0710922 assessed as FIC index after 48 hrs by checkerboard microdilution method
Format: functional
Answer False if fractional inhibitory concentration index (FICI) is under 1, and True if it is 1 or more.

O=C(NO)c1ccc(-c2ccnc(Nc3ccc(N4CCOCC4)cc3)n2)cc1 : False
CS(=O)(=O)Nc1ccc(-c2ccnc(Nc3ccc(N4CCC(C(=O)NCCCCCC(=O)NO)CC4)cc3)n2)cc1 : True
N#CCNC(=O)c1ccc(-c2ccnc(Nc3ccc(N4CCC(C(=O)Nc5ccc(/C=C/C(=O)NO)cc5)CC4)cc3)n2)cc1 : False

**Q:** Would you say CS(=O)(=O)Nc1ccc(-c2ccnc(Nc3ccc(N4CCC(C(=O)NCCCC(=O)NO)CC4)cc3)n2)cc1 shows fractional inhibitory concentration index (FICI) at minimum 1?
**A:** False

**Q:** Would you say CS(=O)(=O)Nc1ccc(-c2ccnc(Nc3ccc(N4CCC(C(=O)Nc5ccc(/C=C/C(=O)NO)cc5)CC4)cc3)n2)cc1 shows fractional inhibitory concentration index (FICI) at minimum 1?
**A:** False

**Q:** Would you say CS(=O)(=O)Nc1ccc(-c2ccnc(Nc3ccc(N4CCC(C(=O)NCCCCCCC(=O)NO)CC4)cc3)n2)cc1 shows fractional inhibitory concentration index (FICI) at minimum 1?
**A:** False

**Q:** Would you say N#CCNC(=O)c1ccc(-c2ccnc(Nc3ccc(N4CCOCC4)cc3)n2)cc1 shows fractional inhibitory concentration index (FICI) at minimum 1?
**A:** True

Taken from ChEMBL document CHEMBL4145634.
